Parameter NanoBRET Fold Response: see the listing below.
molecular target: FPR2 (Homo sapiens); construct: purchased Promega (in-house HiBiT-GPCR construct library, NanoBRET); experiment: NanoBRET screen HiBiT-FPR2 in HEK293; type: binding; conditions: FPR2; tracer 1μM
Sequence (P25090 whole entry): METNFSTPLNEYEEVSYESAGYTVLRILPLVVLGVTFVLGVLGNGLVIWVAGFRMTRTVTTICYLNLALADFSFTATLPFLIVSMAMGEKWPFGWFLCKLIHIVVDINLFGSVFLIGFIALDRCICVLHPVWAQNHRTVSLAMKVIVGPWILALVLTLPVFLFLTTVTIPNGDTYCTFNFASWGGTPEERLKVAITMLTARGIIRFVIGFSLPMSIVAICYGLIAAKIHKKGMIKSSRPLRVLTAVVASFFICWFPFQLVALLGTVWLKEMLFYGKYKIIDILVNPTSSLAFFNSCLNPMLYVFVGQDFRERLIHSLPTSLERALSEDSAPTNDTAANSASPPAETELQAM
Measurement Type: NanoBRET Fold Response

| Molecule | Test Result |
| --- | --- |
| CCCn1c(=O)c2[nH]c(-c3ccc(OCC(=O)NCCNC(=O)CCOCCNC(=O)c4ccc(CNC(=O)CCc5ccc6n5[B-](F)(F)[N+]5=C(c7ccc[nH]7)C=CC5=C6)cc4)cc3)nc2n(CCC)c1=O [XAC-3-NB590] | 0.95 |
| CC(C)N(CC[C@H](c1ccccc1)c1cc(CCNC(=O)c2ccc(CNC(=O)CCc3ccc4n3[B-](F)(F)[N+]3=C(c5ccc[nH]5)C=CC3=C4)cc2)ccc1O)C(C)C [Tolterodine-BZ-NB590] | 0.95 |
| O=C(CCc1ccc2n1[B-](F)(F)[N+]1=C(c3ccc[nH]3)C=CC1=C2)NCCOCCOCCNC(=O)OCCOCCN1CCN(C2=Nc3ccccc3Sc3ccccc32)CC1 [Quetiapine-a-2-NB590] | 0.82 |
| O=C(CCc1ccc2n1[B-](F)(F)[N+]1=C(c3ccc[nH]3)C=CC1=C2)NCc1ccc(C(=O)NCCOCCC(=O)N[C@@H]2CC[C@@]3(O)[C@H]4Cc5ccc(O)c6c5[C@@]3(CCN4CC3CC3)[C@H]2O6)cc1 [Naltrexone-3-NB590] | 0.66 |
| CC(C)N(CC[C@H](c1ccccc1)c1cc(CCNC(=O)CCOCCOCCOCCOCCNC(=O)CCc2ccc3n2[B-](F)(F)[N+]2=C(c4ccc[nH]4)C=CC2=C3)ccc1O)C(C)C [Tolterodine-2-NB590] | 0.71 |
| COc1ccccc1N1CCN(CCCCN2C(=O)c3ccc(CNC(=O)CCOCCNC(=O)c4ccc(CNC(=O)CCc5ccc6n5[B-](F)(F)[N+]5=C(c7ccc[nH]7)C=CC5=C6)cc4)cc3C2=O)CC1 [NAN-190-3-NB590] | 0.77 |
| Cc1nc2n(c(=O)c1CCN1CCC(c3noc4cc(F)ccc34)CC1)CCCC2OC(=O)NCCOCCOCCOCCOCCNC(=O)CCc1ccc2n1[B-](F)(F)[N+]1=C(c3ccc[nH]3)C=CC1=C2 (centres unmarked) [Risperidone-2-NB590] | 0.95 |
| Cc1cc2c(s1)Nc1ccccc1N=C2N1CCN(CCCNC(=O)CCOCCOCCOCCOCCNC(=O)CCc2ccc3n2[B-](F)(F)[N+]2=C(c4ccc[nH]4)C=CC2=C3)CC1 [Olanzapine-a-2-NB590] | 0.80 |
| O=C(CCOCCOCCOCCOCCNC(=O)CCc1ccc2n1[B-](F)(F)[N+]1=C(c3ccc[nH]3)C=CC1=C2)NCCCN1CCN(C2=Nc3ccccc3Oc3ccc(Cl)cc32)CC1 [Loxapine-a-2-NB590] | 0.85 |
| COc1ccccc1N1CCN(CCCCN2C(=O)c3ccc(CNC(=O)CCOCCOCCOCCOCCNC(=O)CCc4ccc5n4[B-](F)(F)[N+]4=C(c6ccc[nH]6)C=CC4=C5)cc3C2=O)CC1 [NAN-190-2-NB590] | 1.20 |
| N#CN=C(NCCCOc1cccc(CN2CCCCC2)c1)NCCNC(=O)CCOCCOCCOCCOCCNC(=O)CCc1ccc2n1[B-](F)(F)[N+]1=C(c3ccc[nH]3)C=CC1=C2 [Aminopotentidine-2-NB590] | 1.10 |

The measurements presented in this section are drawn from paper PMC8151276.
